- testedOn: UniProt P46098
- Sequence (P46098 whole entry): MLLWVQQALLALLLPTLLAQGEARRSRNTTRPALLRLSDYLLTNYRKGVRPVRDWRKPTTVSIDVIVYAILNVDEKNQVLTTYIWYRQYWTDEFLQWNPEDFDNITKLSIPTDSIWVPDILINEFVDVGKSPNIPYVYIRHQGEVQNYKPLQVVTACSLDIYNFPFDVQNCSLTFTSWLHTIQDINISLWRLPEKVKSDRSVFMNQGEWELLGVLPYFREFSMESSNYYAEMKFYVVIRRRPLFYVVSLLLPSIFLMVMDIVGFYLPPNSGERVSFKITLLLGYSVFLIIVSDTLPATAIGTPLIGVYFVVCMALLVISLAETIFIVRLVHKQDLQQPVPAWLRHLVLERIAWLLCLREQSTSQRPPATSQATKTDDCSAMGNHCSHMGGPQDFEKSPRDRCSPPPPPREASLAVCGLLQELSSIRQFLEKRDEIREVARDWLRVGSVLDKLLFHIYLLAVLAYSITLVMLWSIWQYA
- assay: Antagonist activity at recombinant human 5-HT3 assessed as inhibition of agonist-induced effect at 10 uM by aequorin reporter based assay
Kindly state inhibition for each of the entries shown.
Answers are plain numbers, in %.

In the examples that follow, each entry is paired with its recorded inhibition.
>  <smilesString>
CCCc1ccc(C(=O)NCCCN(C)Cc2ccccc2)cc1

>  <inhibition / %>
90

$$$$
>  <smilesString>
CN(CCCNC(=O)c1ccc(C(F)(F)F)cc1)Cc1ccccc1

>  <inhibition / %>
75

$$$$

Now consider a different compound.
# query: inhibition of entry CN(CCCNC(=O)c1ccc(Cl)cc1)CCc1ccccc1
62
